Origin of the recorded values: patent US12636299B2

Some molecules, each annotated with its measured Astro-protective effect (% of control).
test system: astrocyte A-172 cells; assay: 3NPA-induced model of Huntington's disease, astrocyte A-172 cells; assay type: cell-based, human; conditions: A-172, 1 μM; difference to 10 mM 3NPA; 48 h

- molecule: "C=C(C(=O)OCc1cccs1)C1CCC2(COC(C)=O)CCC3(C)C(CCC4C5(C)CCC(OC(C)=O)C(C)(C)C5CCC43C)C12 (stereo not shown)"
  Astro-protective effect (% of control): "4.57 % of control"
- molecule: "C=C(C(=O)OCc1ccncc1)C1CCC2(COC(C)=O)CCC3(C)C(CCC4C5(C)CCC(OC(C)=O)C(C)(C)C5CCC43C)C12 (stereo not shown)"
  Astro-protective effect (% of control): "11.98 % of control"
- molecule: "C=C(C(=O)OCc1ccco1)C1CCC2(COC(C)=O)CCC3(C)C(CCC4C5(C)CCC(OC(C)=O)C(C)(C)C5CCC43C)C12 (stereo not shown)"
  Astro-protective effect (% of control): "12.87 % of control"

Attention now turns to another entry.
Exercise: Output measured Astro-protective effect (% of control) for this item: C=C(C(=O)OCc1cccnc1)C1CCC2(COC(C)=O)CCC3(C)C(CCC4C5(C)CCC(OC(C)=O)C(C)(C)C5CCC43C)C12 (stereo not shown)
Solution: 3.25 % of control

----------
test system: human neuron-like SH-SY5Y cells; assay: 3NPA-induced model of Huntington's disease, neuron-like SH-SY5Y cells; type: cell-based; conditions: 1 μM, difference to 20 mM 3NPA, 48 h
Some compounds, each annotated with its measured Neuro-protective effect (% of control).

- compound: "C=C(C(=O)OCc1ccncc1)C1CCC2(COC(C)=O)CCC3(C)C(CCC4C5(C)CCC(OC(C)=O)C(C)(C)C5CCC43C)C12 (stereo not shown)"
  targetOfAssay: "human neuron-like SH-SY5Y cells"
  experimentalResult: "39.96 % of control"

Exercise: Output measured Neuro-protective effect (% of control) for this item: C=C(C(=O)OCc1cccnc1)C1CCC2(COC(C)=O)CCC3(C)C(CCC4C5(C)CCC(OC(C)=O)C(C)(C)C5CCC43C)C12 (stereo not shown)
Solution: 32.36 % of control

----------
system: glial A-172 cells; assay: Cytotoxicity, Calcein AM viability assay on glial A-172 cells; format: cell-based, human; conditions: 10 μM, 48 hours
quantityMeasured: viability, percentage of DMSO control (%)
Give the value in % but do not write % after it.

Field: example entries. Status: answers known.
- compound: "C=C(C(=O)OCc1cccs1)C1CCC2(COC(C)=O)CCC3(C)C(CCC4C5(C)CCC(OC(C)=O)C(C)(C)C5CCC43C)C12 (stereo not shown) [Compound 6]"
  targetOfAssay: "glial A-172 cells"
  quantityMeasured: "viability, percentage of DMSO control"
  experimentalResult: 96.2
- compound: "C=C(C(=O)OCc1ccncc1)C1CCC2(COC(C)=O)CCC3(C)C(CCC4C5(C)CCC(OC(C)=O)C(C)(C)C5CCC43C)C12 (stereo not shown) [Compound 3]"
  targetOfAssay: "glial A-172 cells"
  quantityMeasured: "viability, percentage of DMSO control"
  experimentalResult: 71.7
- compound: "C=C(C(=O)OCc1ccco1)C1CCC2(COC(C)=O)CCC3(C)C(CCC4C5(C)CCC(OC(C)=O)C(C)(C)C5CCC43C)C12 (stereo not shown) [Compound 5]"
  targetOfAssay: "glial A-172 cells"
  quantityMeasured: "viability, percentage of DMSO control"
  experimentalResult: 90.8

Attention now turns to another entry.
Exercise: Output measured viability, percentage of DMSO control for this item: C=C(C(=O)OCc1cccnc1)C1CCC2(COC(C)=O)CCC3(C)C(CCC4C5(C)CCC(OC(C)=O)C(C)(C)C5CCC43C)C12 (stereo not shown) [Compound 4]
Solution: 83.6
